Reference source: ChEMBL document CHEMBL1140700

- assayTarget: 3-hydroxy-3-methylglutaryl-coenzyme A reductase (Rattus norvegicus)
- Sequence (P51639 whole entry): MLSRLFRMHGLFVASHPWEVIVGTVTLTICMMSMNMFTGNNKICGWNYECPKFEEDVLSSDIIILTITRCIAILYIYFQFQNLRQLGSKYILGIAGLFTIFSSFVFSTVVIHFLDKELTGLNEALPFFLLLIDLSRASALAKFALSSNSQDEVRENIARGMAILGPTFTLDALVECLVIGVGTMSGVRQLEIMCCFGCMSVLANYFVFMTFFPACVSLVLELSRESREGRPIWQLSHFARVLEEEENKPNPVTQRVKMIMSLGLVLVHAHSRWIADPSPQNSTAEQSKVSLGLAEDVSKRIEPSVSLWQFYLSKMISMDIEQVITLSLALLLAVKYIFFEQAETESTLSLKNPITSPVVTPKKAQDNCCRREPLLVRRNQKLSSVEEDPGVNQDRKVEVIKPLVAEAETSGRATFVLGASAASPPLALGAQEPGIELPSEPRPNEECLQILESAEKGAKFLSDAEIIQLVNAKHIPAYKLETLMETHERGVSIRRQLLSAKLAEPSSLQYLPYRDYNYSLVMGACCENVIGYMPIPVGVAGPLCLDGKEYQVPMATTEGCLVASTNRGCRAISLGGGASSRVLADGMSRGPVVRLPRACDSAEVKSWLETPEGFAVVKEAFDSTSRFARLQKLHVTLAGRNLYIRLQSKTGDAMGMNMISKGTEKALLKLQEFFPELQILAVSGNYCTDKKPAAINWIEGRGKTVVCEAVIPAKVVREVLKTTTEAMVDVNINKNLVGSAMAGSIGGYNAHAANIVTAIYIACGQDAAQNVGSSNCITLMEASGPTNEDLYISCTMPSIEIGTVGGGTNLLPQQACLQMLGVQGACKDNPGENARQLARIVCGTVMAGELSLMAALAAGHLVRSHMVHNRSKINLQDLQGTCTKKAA
A collection of molecules and their measured IC50
quantityMeasured: IC50 (nM)

CC(C)c1c(C(=O)N(C)Cc2ccccc2F)nn(-c2ccc(F)cc2)c1CC[C@@H](O)C[C@@H](O)CC(=O)O    4.8
CC[C@H](C)C(=O)O[C@H]1C[C@H](O)C=C2C=C[C@H](C)[C@H](CC[C@@H](O)C[C@@H](O)CC(=O)O)[C@H]21    13
CCN(Cc1ccccc1)C(=O)c1nn(-c2ccc(F)cc2)c(CC[C@@H](O)C[C@@H](O)CC(=O)O)c1C(C)C    3.8
CC(C)c1c(C(=O)NCc2cccc(C#N)c2)nn(-c2ccc(F)cc2)c1CC[C@@H](O)C[C@@H](O)CC(=O)O    2.2
COCc1cccc(CNC(=O)c2nn(-c3ccc(F)cc3)c(CC[C@@H](O)C[C@@H](O)CC(=O)[O-])c2C(C)C)c1.[Na+]    7
CC(C)c1c(C(=O)N(C)Cc2cccc(F)c2)nn(-c2ccc(F)cc2)c1CC[C@@H](O)C[C@@H](O)CC(=O)O    3.9
CC(C)c1c(C(=O)NCc2ccc(F)cc2)nn(-c2ccc(F)cc2)c1CC[C@@H](O)C[C@@H](O)CC(=O)O    3.8
